Molecular target: panel of 442 kinases (Homo sapiens)
Construct: purchased Ambit Biosciences (scanMAXX KINOMEscan)
Test: biochemical
Assay type: binding
Settings: kinase IRAK1; 1 µM; read-out: % of control at 1 µM
result.type: remaining activity at 1 µM (%)
Write the number in % without appending the unit.

mol | value.units | remaining activity at 1 µM
Nc1cc(C(F)(F)F)c(-c2cc(N3CCOCC3)nc(N3CCOCC3)n2)cn1 | % | 82
FC(F)c1nc2ccccc2n1-c1nc(N2CCOCC2)nc(N2CCOCC2)n1 | % | 92
COc1ncc(-c2ccc3nccc(-c4ccnnc4)c3c2)cc1NS(=O)(=O)c1ccc(F)cc1F | % | 100

Turning now to a further molecule:
Challenge: Provide the documented remaining activity at 1 µM with panel of 442 kinases (Homo sapiens) as the system for "Cn1c(=O)n(-c2ccc(C(C)(C)C#N)cc2)c2c3cc(-c4cnc5ccccc5c4)ccc3ncc21"
Response given: 54

* * *

Target: panel of 442 kinases (Homo sapiens)
Construct: purchased Ambit Biosciences (scanMAXX KINOMEscan)
Assay: biochemical
Type: binding
Settings: kinase FYN; 1 µM; read-out: % of control at 1 µM
result.type: remaining activity at 1 µM (%)
Supply the numeric figure in %, leaving out any unit text.

mol | obs.value
FC(F)c1nc2ccccc2n1-c1nc(N2CCOCC2)nc(N2CCOCC2)n1 | 80
Nc1cc(C(F)(F)F)c(-c2cc(N3CCOCC3)nc(N3CCOCC3)n2)cn1 | 100
COc1ncc(-c2ccc3nccc(-c4ccnnc4)c3c2)cc1NS(=O)(=O)c1ccc(F)cc1F | 100

--- query ---
Challenge: # query: remaining activity at 1 µM of entry "Cn1c(=O)n(-c2ccc(C(C)(C)C#N)cc2)c2c3cc(-c4cnc5ccccc5c4)ccc3ncc21"
Response given: 81

* * *

Target: panel of 442 kinases (Homo sapiens)
Construct: purchased Ambit Biosciences (scanMAXX KINOMEscan)
Experiment: biochemical
Type: binding
Details: kinase MELK; 1 µM; read-out: % of control at 1 µM
result.type: remaining activity at 1 µM (%)
Provide only the numeric value, understood in %.

Examples from the recorded data:
compound | remaining activity at 1 µM (%)
COc1ncc(-c2ccc3nccc(-c4ccnnc4)c3c2)cc1NS(=O)(=O)c1ccc(F)cc1F [Omipalisib] | 100
FC(F)c1nc2ccccc2n1-c1nc(N2CCOCC2)nc(N2CCOCC2)n1 [ZSTK474] | 100
Nc1cc(C(F)(F)F)c(-c2cc(N3CCOCC3)nc(N3CCOCC3)n2)cn1 [Buparlisib] | 90

Consider the additional compound presented here.
Challenge: What value of remaining activity at 1 µM has been reported for the following compound? Cn1c(=O)n(-c2ccc(C(C)(C)C#N)cc2)c2c3cc(-c4cnc5ccccc5c4)ccc3ncc21 [Dactolisib]
Response given: 45

* * *

Molecular target: panel of 442 kinases (Homo sapiens)
Construct: purchased Ambit Biosciences (scanMAXX KINOMEscan)
Assay: biochemical
Type: binding
Conditions: kinase IRAK3; 1 µM; read-out: % of control at 1 µM
Readings of remaining activity at 1 µM for the listed compounds
Record the value in %, omitting the unit from your answer.

Before answering, review these 3 worked examples.
mol | remaining activity at 1 µM, %
Nc1cc(C(F)(F)F)c(-c2cc(N3CCOCC3)nc(N3CCOCC3)n2)cn1 | 95
FC(F)c1nc2ccccc2n1-c1nc(N2CCOCC2)nc(N2CCOCC2)n1 | 100
COc1ncc(-c2ccc3nccc(-c4ccnnc4)c3c2)cc1NS(=O)(=O)c1ccc(F)cc1F | 26

Challenge: Look up remaining activity at 1 µM: "Cn1c(=O)n(-c2ccc(C(C)(C)C#N)cc2)c2c3cc(-c4cnc5ccccc5c4)ccc3ncc21"
Response given: 50

These data points were gathered from paper PMC5564600.
